Recorded measurements of recombinant UMI read abundance (log10), one per entry
# measurementDescription: recombinant UMI read abundance after kanamycin selection (control-corrected) (log10(CPM+1)); higher = more efficient recombination; extreme values may be limits of the assay; sequences stand for … in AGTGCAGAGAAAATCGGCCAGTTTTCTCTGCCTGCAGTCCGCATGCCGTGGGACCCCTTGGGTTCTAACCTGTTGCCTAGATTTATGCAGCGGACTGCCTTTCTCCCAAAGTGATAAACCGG…AGGTTGGTTTCACT; site = the 11-nt donor
Please respond with just the number, no unit label.

GTATCCACATGGACCGGTTTTCCCGGTAATCCGTATTTGTA (site GTATCCACTTA) = 1.94
ACGAATCCATGGACCGGTTTTCCCGGTAATCCGTATTTGTT (site CGGAATCCTAA) = 0
CTATTCCCATGGACCGGTTTTCCCGGTAATCCGTATTTGCT (site CAATTCCCTAG) = 0.77
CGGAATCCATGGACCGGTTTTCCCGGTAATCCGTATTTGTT (site CGGACTCCTAA) = 0.00741

Now take the following sequence into account.
**Query** Endpoint output: recombinant UMI read abundance (log10) of AGCCGTTCATGGACCGGTTTTCCCGGTAATCCGTATTTGAC (site AGCCTTTCTGT) . Value?
**Result** 0

----------
# measurementDescription: recombinant barcode read abundance after kanamycin selection (control-corrected) (log10(CPM+1)); higher = more efficient recombination; sequences stand for … in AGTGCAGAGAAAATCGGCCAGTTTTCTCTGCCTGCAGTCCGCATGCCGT…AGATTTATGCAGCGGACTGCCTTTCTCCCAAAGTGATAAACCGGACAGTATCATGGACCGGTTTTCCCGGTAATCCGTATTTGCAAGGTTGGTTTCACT; site = the 11-nt target
Please use YES whenever recombinant barcode read abundance (log10) is not below 0.7, and NO whenever it is.

Take a look at these entries with their results.
CTCGTAGCTTGGGTTCTAACCTGTTGCGG (site CTCGTACCTCC) = NO
TAGACATCTTGGGTTCTAACCTGTTGCTC (site TAGGCATCTGA) = NO
TCGACGCCTTGGGTTCTAACCTGTTGCTT (site TCGACGCCTAA) = NO
GTACAATCTTGGGTTCTAACCTGTTGCAG (site CATAGTCCTTG) = NO
GGGGTCCCTTGGGTTCTAACCTGTTGCCA (site GGGGTCCCTTG) = YES

**Query** Can GCTAACCCTTGGGTTCTAACCTGTTGCCT (site GCTAACCCTAG) be said to have recombinant barcode read abundance (log10) at or above 0.7?
**Result** YES

**Query** Please do the same for GTGAGCCCTTGGGTTCTAACCTGTTGCCG (site GTGAGCCCTCG) as well.
**Result** YES

**Query** Try this sequence next: AAAATACCTTGGGTTCTAACCTGTTGCGG (site CAAAGACCTCC)
**Result** NO

**Query** Further, for CCTGGAACTTGGGTTCTAACCTGTTGCTT (site CCTGGAGCTAT) ?
**Result** NO

**Query** Field entry: GTCGGAGCTTGGGTTCTAACCTGTTGCAG (site GTCGGAGCTCG)
**Result** NO

**Query** Record: GACGTACCTTGGGTTCTAACCTGTTGCCT (site GACCTACCTAG)
**Result** NO

**Query** Another sequence: ATAAGCTCTTGGGTTCTAACCTGTTGCCT (site ATAAGCTCTAG)
**Result** YES

**Query** Next entry: TGCTGGGCTTGGGTTCTAACCTGTTGCTG (site TGCTGGGCTCA)
**Result** NO

**Query** Another: CCTCGGGCTTGGGTTCTAACCTGTTGCAG (site CGTCGGGCTCT)
**Result** NO

**Query** Next sequence: CTACGTACTTGGGTTCTAACCTGTTGCTG (site CTACGGACTCA)
**Result** NO

----------
# measurementDescription: recombinant UMI read abundance after kanamycin selection (control-corrected) (log10(CPM+1)); higher = more efficient recombination; extreme values may be limits of the assay; sequences stand for … in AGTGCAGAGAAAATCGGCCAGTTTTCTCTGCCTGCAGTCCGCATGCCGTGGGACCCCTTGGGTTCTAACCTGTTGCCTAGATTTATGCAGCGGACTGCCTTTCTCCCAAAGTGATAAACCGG…AGGTTGGTTTCACT; site = the 11-nt donor
Each entry below carries its recorded recombinant UMI read abundance (log10).
Reply with the value as a number alone.

In the examples that follow, each entry is paired with its recorded recombinant UMI read abundance (log10).
GGTAAACCATGGACCGGTTTTCCCGGTAATCCGTATTTGAT (site GGTAAACCTAT) = 0
GATGTAACATGGACCGGTTTTCCCGGTAATCCGTATTTGCT (site CATGTAACTAG) = 1.31
CAGCTCACATGGACCGGTTTTCCCGGTAATCCGTATTTGAT (site TAGCTCACTAT) = 0.404

**Query** Quick one: recombinant UMI read abundance (log10) of GTTAGAGCATGGACCGGTTTTCCCGGTAATCCGTATTTGGC (site GTTAGAGCTGC) ?
**Result** 2.22

**Query** Next sequence: ATTGAGACATGGACCGGTTTTCCCGGTAATCCGTATTTGCT (site ATTGAGACTAC)
**Result** 0.379

----------
# measurementDescription: recombinant barcode read abundance after kanamycin selection (control-corrected) (log10(CPM+1)); higher = more efficient recombination; sequences stand for … in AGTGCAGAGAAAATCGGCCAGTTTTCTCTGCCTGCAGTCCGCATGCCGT…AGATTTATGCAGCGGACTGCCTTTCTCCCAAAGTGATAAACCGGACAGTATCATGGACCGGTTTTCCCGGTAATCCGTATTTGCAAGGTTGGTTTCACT; site = the 11-nt target
Just so you know, the groups by recombinant barcode read abundance (log10) go like this: lower: < 0.1; middle: ≥ 0.1 and < 0.2; upper: ≥ 0.2

TCGAATCCTTGGGTTCTAACCTGTTGCCT (site TCGAACCCTAG) = lower

**Query** # bin lookup: classify GTTTGGCCTTGGGTTCTAACCTGTTGCTT (site GTTTGCCCTAA) by its recombinant barcode read abundance (log10)
**Result** middle

**Query** Same question for CTAGGCCCTTGGGTTCTAACCTGTTGCCT (site CTAGGCCCTAC) please.
**Result** upper

**Query** Field entry: TCATGACCTTGGGTTCTAACCTGTTGCAT (site TCATGACCTAT)
**Result** upper

**Query** Try this sequence next: AGGTCACCTTGGGTTCTAACCTGTTGCAT (site AGGTCACCTAA)
**Result** middle

**Query** Also TGCTGTCCTTGGGTTCTAACCTGTTGCTT (site TGCTGTCCTAA) , if possible.
**Result** lower

**Query** Could you do the same for CTACGTACTTGGGTTCTAACCTGTTGCCT (site TTACGTACTAG) , please?
**Result** lower

**Query** Next: GCTGGGTCTTGGGTTCTAACCTGTTGCTT (site GCAGGGTCTAA)
**Result** upper

**Query** Queued: TTCGCGCCTTGGGTTCTAACCTGTTGCCT (site TTCTCGCCTAG)
**Result** middle

**Query** Try this sequence too: GGGAACACTTGGGTTCTAACCTGTTGCCA (site GGGCACACTTG)
**Result** middle

----------
# measurementDescription: recombinant UMI read abundance after kanamycin selection (control-corrected) (log10(CPM+1)); higher = more efficient recombination; extreme values may be limits of the assay; sequences stand for … in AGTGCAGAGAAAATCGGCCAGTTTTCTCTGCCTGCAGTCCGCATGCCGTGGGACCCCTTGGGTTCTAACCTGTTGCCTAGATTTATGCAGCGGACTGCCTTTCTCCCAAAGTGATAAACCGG…AGGTTGGTTTCACT; site = the 11-nt donor
Each entry below lists one item and its recorded recombinant UMI read abundance (log10) value.
# output: bare number, no unit

Worked examples follow.
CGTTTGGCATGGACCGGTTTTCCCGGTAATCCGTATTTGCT (site CGTTTTGCTAG) = 0
AGCCTCGCATGGACCGGTTTTCCCGGTAATCCGTATTTGTT (site AGCCTAGCTAA) = 0.0107
CCCATTTCATGGACCGGTTTTCCCGGTAATCCGTATTTGTC (site CCCATCTCTGA) = 0
GTATGCACATGGACCGGTTTTCCCGGTAATCCGTATTTGTG (site GTATGCACTTA) = 1.29
CGTTAGACATGGACCGGTTTTCCCGGTAATCCGTATTTGAC (site CGTTAGACTGT) = 1.58
TATTCAACATGGACCGGTTTTCCCGGTAATCCGTATTTGCA (site GGGAACGCTAA) = 0.00333
CCGCACACATGGACCGGTTTTCCCGGTAATCCGTATTTGGT (site CCGCACACTAC) = 0.509
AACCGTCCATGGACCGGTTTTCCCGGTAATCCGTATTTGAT (site AACGGTCCTAT) = 0.00654

**Query** Query (sequence): GAAGATTCATGGACCGGTTTTCCCGGTAATCCGTATTTGTC (site GAAGATTCTCA) ; field requested: recombinant UMI read abundance (log10)
**Result** 0

**Query** Also TCCACCGCATGGACCGGTTTTCCCGGTAATCCGTATTTGCG (site TCCTCCGCTCG) ?
**Result** 0.0203

**Query** Now the same for ACTTCTACATGGACCGGTTTTCCCGGTAATCCGTATTTGTG (site ACGTCTACTCA)
**Result** 0.0444

**Query** Moving on to the next sequence: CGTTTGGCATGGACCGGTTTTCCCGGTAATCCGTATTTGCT (site CGTTTGGCTGG)
**Result** 0

**Query** Please do the same for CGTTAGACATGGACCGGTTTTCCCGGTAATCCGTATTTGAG (site CGTTAGACTAT) as well.
**Result** 1.08

**Query** Then what about the sequence CGTTTGCCATGGACCGGTTTTCCCGGTAATCCGTATTTGCT (site CGTTTGGCTAG) ?
**Result** 0.00559

**Query** Same thing, different sequence: GGCTCCTCATGGACCGGTTTTCCCGGTAATCCGTATTTGTA (site GGCTCCTCTTA)
**Result** 1.84

**Query** Request: GGCGGCTCATGGACCGGTTTTCCCGGTAATCCGTATTTGTG (site GGCGGCTCTCA)
**Result** 1.23

**Query** // query: AGGTTCTCATGGACCGGTTTTCCCGGTAATCCGTATTTGTG (site AGGTTCGCTCA)
**Result** 0.0171

**Query** Here is the next sequence: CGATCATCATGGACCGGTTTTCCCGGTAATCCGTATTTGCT (site CGATCAGCTTG)
**Result** 0

**Query** Then this sequence: GGTGAGTCATGGACCGGTTTTCCCGGTAATCCGTATTTGGC (site GGTGAGTCTGC)
**Result** 2.23

**Query** # repeat for CCTGATACATGGACCGGTTTTCCCGGTAATCCGTATTTGTA (site CCTGATACTTA)
**Result** 0.326

**Query** Ok, now CGGAAGCCATGGACCGGTTTTCCCGGTAATCCGTATTTGTC (site CGGAATCCTAA)
**Result** 0.00548

**Query** Here is the next sequence: AATGTGTCATGGACCGGTTTTCCCGGTAATCCGTATTTGAT (site AATGTGTCTCT)
**Result** 0.003

**Query** Another sequence to look at: CGATCTTCATGGACCGGTTTTCCCGGTAATCCGTATTTGCT (site CGATCGTCTAG)
**Result** 0.00569

**Query** Do the same for CCCTAACCATGGACCGGTTTTCCCGGTAATCCGTATTTGCT (site CCCTAACCTAG) please
**Result** 0

**Query** Similarly, TTAGCGGCATGGACCGGTTTTCCCGGTAATCCGTATTTGTG (site TTAGCGGCTCA) ?
**Result** 1.51

**Query** Next: TAAAATCCATGGACCGGTTTTCCCGGTAATCCGTATTTGTA (site TAAAGTCCTTA)
**Result** 0.431

**Query** What do you get for CGGAATCCATGGACCGGTTTTCCCGGTAATCCGTATTTGTG (site CGGAATCCTTA) ?
**Result** 0

**Query** Quick one: GGCCACCCATGGACCGGTTTTCCCGGTAATCCGTATTTGTG (site GGCCACCCTCA)
**Result** 0.00742
